B1: Protein S100-G, residues 1 to 79; numbered along this chain, P02633 (parent)
chain: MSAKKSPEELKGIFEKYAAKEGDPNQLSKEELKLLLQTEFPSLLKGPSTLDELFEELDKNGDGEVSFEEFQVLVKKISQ

# Variants of: B1
# test.method.notes: abundance fitness (aPCA) (normalised: wild type 0, dead -1); higher = more abundant; growth selection in yeast, the domain comes from the species named
# test.parameters: Bos taurus
Hi, to clarify the labels: true (1) covers abundance fitness from -0.04 upward, false (0) covers anything below -0.04.

As a guide, the following entries are already answered.
[
  {
    "variant.descriptor": "Q79E",
    "class": "true (1)"
  },
  {
    "variant.descriptor": "F40V",
    "class": "false (0)"
  },
  {
    "variant.descriptor": "S48W",
    "class": "false (0)"
  },
  {
    "variant.descriptor": "K20S",
    "class": "false (0)"
  },
  {
    "variant.descriptor": "I13Q",
    "class": "false (0)"
  }
]

Does abundance fitness meet or surpass -0.04 for K59M ?
true (1)

Now give it for M1V too.
false (0)

Now give it for S2M too.
true (1)
